- Study target: Sialic acid-binding Ig-like lectin 7 (Homo sapiens) (UniProt Q9Y286)
- Sequence (Q9Y286 whole entry, the tested form may be a part): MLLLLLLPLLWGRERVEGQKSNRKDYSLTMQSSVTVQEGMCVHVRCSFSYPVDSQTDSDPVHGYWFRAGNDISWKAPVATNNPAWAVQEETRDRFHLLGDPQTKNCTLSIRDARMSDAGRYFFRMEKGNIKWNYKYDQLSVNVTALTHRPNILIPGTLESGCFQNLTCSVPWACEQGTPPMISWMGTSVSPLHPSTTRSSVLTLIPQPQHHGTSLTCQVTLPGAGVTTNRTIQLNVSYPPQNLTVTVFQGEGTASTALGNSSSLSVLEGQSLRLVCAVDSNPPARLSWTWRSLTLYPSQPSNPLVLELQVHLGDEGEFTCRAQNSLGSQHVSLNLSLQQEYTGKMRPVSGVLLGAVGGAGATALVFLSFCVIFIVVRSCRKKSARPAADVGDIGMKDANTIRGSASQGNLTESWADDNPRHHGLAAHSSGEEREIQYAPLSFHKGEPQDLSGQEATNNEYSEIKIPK
- Assay explanation: Potency index, ratio of test compound IC50 to (2R,4S,5R,6R)-2-(3-(4-([1,1'-biphenyl]-4-yl)-1H-1,2,3-triazol-1-yl)propoxy)-5-acetamido-4-hydroxy-6-((1R,2R)-1,2,3-trihydroxypropyl)tetrahydro-2H-pyran-2-carboxylate Sodium IC50 for competitive inhibition of IgG1-fused human Siglec-7 Fc domain preincubated for 10 mins followed by addition of red blood cells incubated for 20 mins on ice by sandwich FACS analysis
- Experimental setup: time 30.0 min
Property label: Ratio IC50

{"Item smiles": "O=C(CF)N[C@H]1[C@H]([C@H](O)[C@H](O)CO)O[C@@](OCCCn2cc(-c3ccc(-c4ccccc4)cc3)nn2)(C(=O)O)C[C@@H]1O", "Study target": "Sialic acid-binding Ig-like lectin 7 (Homo sapiens) (UniProt Q9Y286)", "Numeric readout": 1.6}

I: O=C(CO)N[C@H]1[C@H]([C@H](O)[C@H](O)CO)O[C@@](OCCCn2cc(-c3ccc(-c4ccccc4)cc3)nn2)(C(=O)O)C[C@@H]1O
II: CC(=O)N[C@H]1[C@H]([C@H](O)[C@H](O)CC(=O)O)O[C@@](OCCCn2cc(-c3ccc(-c4ccccc4)cc3)nn2)(C(=O)O)C[C@@H]1O
-- ask I need your help: which of the pair I , II has higher Ratio IC50? Label of pick, please.
-- reply I
(I: 1.5, II: 0.75)
